PROTOCOL_TEXT: qHTS of pediatric cancer cell lines to identify multiple opportunities for drug repurposing: Primary screen for MG 63 (6-TG R) cells (AID 1347105); further: nearly all actives have a fitted effect of over 50% in size
DETAILS: MG 63 (6-TG R) viability, CellTiter-Glo, 48 h; series mostly up to 46 µM
Procedure: Drug repurposing or repositioning has been offered as a strategy for drug development in oncology programs. This approach has special potential for childhood cancers and other rare or orphan diseases, where the expected return on new drug development has been a disincentive to pharmaceuticals. […] We employed a titration-based paradigm (quantitative high-throughput screening or qHTS), where all compounds were tested at multiple concentrations for their effect on cell viability. […]
Records with an inconclusive call do not appear. Active and inactive are the calls of the source. The call rests on the fitted dose curve; in most records, active means well fitted cell-killing curve with a large enough effect; inconclusive means small, poorly fitted or top-dose-only effect; inactive means no such curve, though single readings can be large or run the other way.
Permitted responses: active, inactive

Examples with answers:
> print(dat)
                                   compound     group
1  COc1cc(C[C@@H](CO)[C@H](CO)Cc2ccc(O)c(OC)c2)ccc1O    active
2  CCOC(=O)[C@H](CCc1ccccc1)N[C@@H](C)C(=O)N1[C@@H](C(=O)O)C[C@H]2CCC[C@@H]21    active
3  CNC(=O)c1ccc(Nc2cc(Nc3ccccc3S(=O)(=O)C(C)C)c3cc[nH]c3n2)nc1    active
4  C=C1C(=CC=C2CCC[C@]3(C)[C@@H]([C@H](C)CCCC(C)(C)O)CC[C@@H]23)C[C@@H](O)C[C@@H]1O    active
5  C[C@]12C=CC(=O)N[C@@H]1CC[C@H]1[C@H]3CC[C@@H](C(=O)Nc4cc(C(F)(F)F)ccc4C(F)(F)F)[C@@]3(C)CC[C@@H]12  inactive

Please look at the following compound next.
Check the results log: what was the call for C=CC(=O)Nc1cccc(Nc2nc(NC3CCC(N(C)C)CC3)nc3c2ncn3C(C)C)c1 (stereo unspecified) ?
active
